Answer each item with its documented melting point.

*Q* Determine from records and report melting point for O=C1N(CCCO)c2ccccc2C12COc1cc3c(cc12)OCCO3 (centres unmarked)
*A* 157 to 158 °C

*Q* Determine from records and report melting point for O=C(CN1C(=O)C2(COc3cc4c(cc32)OCCO4)c2ccccc21)Nc1ccccc1F (centres unmarked)
*A* 117 to 119 °C

*Q* Determine from records and report melting point for CC(C)N1CCOC(CN2C(=O)C3(COc4cc5c(cc43)OCCO5)c3ccccc32)C1 (centres unmarked)
*A* 102 to 125 °C

*Q* Determine from records and report melting point for COc1ncc(CN2C(=O)C3(COc4cc5c(cc43)CCO5)c3ccccc32)cn1 (centres unmarked)
*A* 203 to 204 °C

*Q* Determine from records and report melting point for CN1C(=O)C2(COc3cc4c(cc32)OCCO4)c2c(N)cccc21 (centres unmarked)
*A* 252 to 254 °C

*Q* Determine from records and report melting point for CC(C)N1CCC(CN2C(=O)C3(COc4cc5c(cc43)OCCO5)c3ccccc32)CC1.Cl (centres unmarked)
*A* 213 to 216 °C

*Q* Determine from records and report melting point for CN1C(=O)C2(COc3cc4c(cc32)OCCO4)c2c(NC(=O)C3CCCC3)cccc21 (centres unmarked)
*A* 196 to 198 °C

*Q* Determine from records and report melting point for CN1C(=O)C2(COc3cc4c(cc32)OCCO4)c2c(OCc3ncccc3C(F)(F)F)cccc21 (centres unmarked)
*A* 157 to 159 °C

====

Answer each item with its documented melting point.

*Q* Determine from records and report melting point for Cc1noc2cc3c(cc12)C1(CO3)C(=O)N(Cc2nc(C(=O)N(C)C)co2)c2ccccc21 (stereo not shown)
*A* 87 to 89 °C

*Q* Determine from records and report melting point for O=C1N(Cc2cc3ccccc3o2)c2ccccc2C12COc1cc3c(cc12)OCO3 (stereo not shown)
*A* 167 to 168 °C

*Q* Determine from records and report melting point for Cc1ccc(F)c2c1NC(=O)C21COc2cc3c(cc21)CCO3 (stereo not shown)
*A* > 250 °C

*Q* Determine from records and report melting point for O=C(NCc1cccs1)c1ccc(CN2C(=O)C3(COc4cc5c(cc43)CCO5)c3ccccc32)cc1 (stereo not shown)
*A* 167 to 168 °C

====

- target: UniProt P08684
- Sequence (P08684 whole entry): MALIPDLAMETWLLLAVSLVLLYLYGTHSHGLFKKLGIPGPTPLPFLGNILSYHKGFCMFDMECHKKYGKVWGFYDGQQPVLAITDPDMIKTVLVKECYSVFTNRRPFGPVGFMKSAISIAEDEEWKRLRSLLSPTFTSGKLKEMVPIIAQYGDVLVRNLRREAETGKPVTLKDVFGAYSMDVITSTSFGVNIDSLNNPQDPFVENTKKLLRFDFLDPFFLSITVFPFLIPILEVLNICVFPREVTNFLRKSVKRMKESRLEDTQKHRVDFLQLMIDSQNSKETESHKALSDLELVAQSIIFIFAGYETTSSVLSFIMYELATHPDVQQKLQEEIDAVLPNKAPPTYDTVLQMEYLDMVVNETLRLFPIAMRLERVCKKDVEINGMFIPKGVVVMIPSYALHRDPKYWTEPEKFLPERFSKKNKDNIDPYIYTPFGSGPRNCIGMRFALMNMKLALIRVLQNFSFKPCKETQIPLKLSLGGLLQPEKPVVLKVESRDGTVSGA
- assay: Cytochrome P450 (CYP450) Inhibition Assay, CYP3A4 (Vivid fluorescence, BOMCC substrate)
- condition-summary: human, P450 Baculosomes (recombinant CYP3A4), probe BOMCC (Vivid substrate)
Answer each item with its documented inhibition at 10 µM.

*Q* Determine from records and report inhibition at 10 µM for CN1C(=O)C2(COc3cc4c(cc32)OCCO4)c2c1cccc2N1CCCC1=O (centres unmarked) [Example 16.16]
*A* < 50%

*Q* Determine from records and report inhibition at 10 µM for O=C1N(Cc2sccc2Cl)c2ccccc2C12COc1cc3c(cc12)OCO3 (centres unmarked) [Example 6.3]
*A* > 50%

*Q* Determine from records and report inhibition at 10 µM for COC(=O)c1cccc(CN2C(=O)C3(COc4cc5c(cc43)OCCO5)c3ccccc32)c1 (centres unmarked) [Example 9.53]
*A* > 50%

*Q* Determine from records and report inhibition at 10 µM for Cc1nc2cc3c(cc2s1)C1(CO3)C(=O)N(Cc2ccccn2)c2ccccc21 (centres unmarked) [Example 9.21]
*A* < 50%

*Q* Determine from records and report inhibition at 10 µM for N#Cc1ccc(CN2C(=O)C3(COc4cc5c(cc43)OCCO5)c3ccccc32)cc1 (centres unmarked) [Example 4.96]
*A* > 50%

*Q* Determine from records and report inhibition at 10 µM for O=C1N(Cc2ccccc2C(F)(F)F)c2ccccc2[C@@]12COc1cc3c(cc12)OCCO3 [Example 4.114]
*A* < 50%

*Q* Determine from records and report inhibition at 10 µM for CN(C)Cc1cccc2c1C1(COc3cc4c(cc31)CCO4)C(=O)N2C[C@H]1CCCO1 (some centres unmarked) [Example 11.37]
*A* < 50%

*Q* Determine from records and report inhibition at 10 µM for O=C1N(CCC2CC2)c2ccccc2C12COc1cc3c(cc12)OCCO3 (centres unmarked) [Example 7.6]
*A* < 50%

*Q* Determine from records and report inhibition at 10 µM for O=C1Nc2ccccc2C12COc1cc3nccnc3cc12 (centres unmarked) [Example 3.51]
*A* < 50%

*Q* Determine from records and report inhibition at 10 µM for CN1C(=O)C2(COc3cc4c(cc32)OCCO4)c2c(NC(=O)c3ccccc3)cccc21 (centres unmarked) [Example 16.27]
*A* > 50%

*Q* Determine from records and report inhibition at 10 µM for CN(C)C(=O)c1ccc(CN2C(=O)C3(COc4cc5c(cc43)OCCO5)c3ccccc32)o1 (centres unmarked) [Example 11.33]
*A* > 50%

*Q* Determine from records and report inhibition at 10 µM for N#Cc1cccc2c1C1(COc3cc4c(cc31)CCO4)C(=O)N2C[C@H]1CCCO1 (some centres unmarked) [Example 11.35]
*A* < 50%

*Q* Determine from records and report inhibition at 10 µM for O=C1N(Cc2cc(Br)cs2)c2ccccc2C12COc1cc3c(cc12)OCO3 (centres unmarked) [Example 1.7]
*A* > 50%

*Q* Determine from records and report inhibition at 10 µM for CCc1ccc(NC(=O)CN2C(=O)C3(COc4cc5c(cc43)CCO5)c3ccccc32)cc1 (centres unmarked) [Example 12.47]
*A* < 50%

*Q* Determine from records and report inhibition at 10 µM for C[C@H](NC(=O)c1cccc(CN2C(=O)C3(COc4cc5c(cc43)CCO5)c3ccccc32)c1)C1CCCCC1 (some centres unmarked) [Example 12.6]
*A* > 50%

*Q* Determine from records and report inhibition at 10 µM for O=C1COc2cc3c(cc21)C1(CO3)C(=O)N(C[C@H]2CCCO2)c2ccccc21 (some centres unmarked) [Example 11.60]
*A* < 50%

*Q* Determine from records and report inhibition at 10 µM for N#Cc1cccc(CN2C(=O)C3(COc4cc5c(cc43)OCCO5)c3ccccc32)c1 (centres unmarked) [Example 4.94]
*A* > 50%

====

Answer each item with its documented melting point.

*Q* Determine from records and report melting point for N#Cc1ccccc1-c1ccc(CN2C(=O)C3(COc4cc5c(cc43)CCO5)c3ccccc32)cc1 (stereo not drawn)
*A* 192 to 194 °C

*Q* Determine from records and report melting point for O=C1N(C(c2ccccc2)c2ccccc2)c2cccc(F)c2C12COc1cc3c(cc12)OCCO3 (stereo not drawn)
*A* 196 to 198 °C

*Q* Determine from records and report melting point for O=C1N(Cc2noc(C(F)F)n2)c2cccc(Cl)c2C12COc1cc3c(cc12)OCO3 (stereo not drawn)
*A* 179 to 182 °C

*Q* Determine from records and report melting point for COCCNC(=O)c1cccc2c1C1(COc3cc4c(cc31)OCCO4)C(=O)N2C (stereo not drawn)
*A* 97 to 100 °C

*Q* Determine from records and report melting point for Nc1noc2cc3c(cc12)C1(CO3)C(=O)N(Cc2ccccn2)c2ccccc21 (stereo not drawn)
*A* 190 to 192 °C

*Q* Determine from records and report melting point for Cc1cccc(NC(=O)c2ccccc2CN2C(=O)C3(COc4cc5c(cc43)CCO5)c3ccccc32)c1 (stereo not drawn)
*A* 229 to 231 °C

*Q* Determine from records and report melting point for O=C1N(Cc2noc(C3CC3)n2)c2ccccc2C12COc1cc3c(cc12)OCO3 (stereo not drawn)
*A* 136 to 137 °C

*Q* Determine from records and report melting point for `O=C1N(Cc2ccc(C(F)(F)F)o2)c2ccccc2[C@]12COc1cc3c(cc12)CCO3`
*A* 64 to 65 °C

*Q* Determine from records and report melting point for CC(C)CCNCCCN1C(=O)C2(COc3cc4c(cc32)CCO4)c2ccccc21.Cl (stereo not drawn)
*A* 98 to 101 °C

*Q* Determine from records and report melting point for O=C1N(Cc2cccc(C(F)(F)F)n2)c2ccccc2C12COc1cc3c(cc12)OCCO3 (stereo not drawn)
*A* 195 to 196 °C

*Q* Determine from records and report melting point for O=C1N(C(c2ccccc2)c2ccccc2)c2cc(F)ccc2C12COc1cc3c(cc12)CCO3 (stereo not drawn)
*A* 194 to 196 °C

*Q* Determine from records and report melting point for O=C1N(Cc2cccnc2)c2ccccc2C12COc1cc(F)c(F)cc12 (stereo not drawn)
*A* 175 to 177 °C

*Q* Determine from records and report melting point for CN1C(=O)C2(COc3cc4c(cc32)OCCO4)c2c(NC(=O)C3CC3)cccc21 (stereo not drawn)
*A* 266 to 268 °C

*Q* Determine from records and report melting point for COCCOCCOc1cccc2c1C1(COc3cc4c(cc31)OCCO4)C(=O)N2C (stereo not drawn)
*A* 109 to 110 °C

*Q* Determine from records and report melting point for O=C1N(Cc2csc(-c3ccc(C(F)(F)F)cc3)n2)c2ccccc2C12COc1cc3c(cc12)OCO3 (stereo not drawn)
*A* 151 to 153 °C

*Q* Determine from records and report melting point for NC(=O)c1ccc2c(c1)C1(COc3cc4c(cc31)OCCO4)C(=O)N2Cc1ccccn1 (stereo not drawn)
*A* 220 to 222 °C

*Q* Determine from records and report melting point for Cc1nc2cc3c(cc2s1)C1(CO3)C(=O)N(CC2CCOCC2)c2ccccc21 (stereo not drawn)
*A* 186 to 187 °C

*Q* Determine from records and report melting point for O=C1N(Cc2ccccn2)c2cccc(-c3ccc(Oc4ccccc4)cc3)c2C12COc1cc3c(cc12)OCCO3 (stereo not drawn)
*A* 196 to 199 °C

*Q* Determine from records and report melting point for O=C1Nc2cccc(O)c2C12COc1cc3c(cc12)OCCO3 (stereo not drawn)
*A* > 250 °C

*Q* Determine from records and report melting point for Cn1c(=O)oc2cc3c(cc21)C1(CO3)C(=O)N(C[C@H]2CCCO2)c2ccccc21 (stereo partly drawn)
*A* > 250 °C

*Q* Determine from records and report melting point for Cc1nc(-c2ccc3c(c2)OCC32C(=O)N(Cc3ccccn3)c3ccccc32)no1 (stereo not drawn)
*A* 147 to 148 °C

*Q* Determine from records and report melting point for COc1ccc2c(c1OC)C1(COc3cc4c(cc31)OCCO4)C(=O)N2Cc1ccc(C(F)(F)F)o1 (stereo not drawn)
*A* 62 to 65 °C

*Q* Determine from records and report melting point for O=C1N(C[C@H]2CCCO2)c2cccc(Cl)c2C12COc1cc3c(cc12)CCO3 (stereo partly drawn)
*A* 78 to 82 °C

*Q* Determine from records and report melting point for N#Cc1cccc2c1N(Cc1ccc(Cl)s1)C(=O)C21COc2cc3c(cc21)OCO3 (stereo not drawn)
*A* 192 to 193 °C

*Q* Determine from records and report melting point for O=C1N(CCc2noc(C(F)(F)F)n2)c2ccccc2C12COc1cc3c(cc12)OCO3 (stereo not drawn)
*A* 45 to 48 °C

*Q* Determine from records and report melting point for `O=C1N(C[C@H]2COCCO2)c2ccccc2[C@]12COc1cc3c(cc12)OCCO3`
*A* 198 to 200 °C

*Q* Determine from records and report melting point for O=C1N(Cc2ccccn2)c2ccc(Br)cc2C12COc1cc3c(cc12)OCCO3 (stereo not drawn)
*A* > 250 °C

*Q* Determine from records and report melting point for Cc1nc(-c2cccc3c2C2(COc4cc5c(cc42)OCCO5)C(=O)N3C)cs1 (stereo not drawn)
*A* 219 to 220 °C

*Q* Determine from records and report melting point for O=C1N(CCCOCc2ccccc2)c2ccccc2C12COc1cc3c(cc12)CCO3 (stereo not drawn)
*A* 112 to 113 °C

*Q* Determine from records and report melting point for O=C1N(Cc2nccnc2C(F)(F)F)c2ccccc2C12COc1cc3c(cc12)OCCO3 (stereo not drawn)
*A* 230 to 232 °C

*Q* Determine from records and report melting point for O=C1N(Cc2ccc(C(F)(F)F)o2)c2c(C(F)(F)F)cccc2C12COc1cc3c(cc12)OCO3 (stereo not drawn)
*A* 95 to 98 °C

*Q* Determine from records and report melting point for CCN1CCC(CN2C(=O)C3(COc4cc5c(cc43)CCO5)c3ccccc32)CC1.Cl (stereo not drawn)
*A* 135 °C (dec.)

*Q* Determine from records and report melting point for CCCCN(C)CCCN1C(=O)C2(COc3cc4c(cc32)CCO4)c2ccccc21.Cl (stereo not drawn)
*A* 96 to 99 °C
